assay: Cellular toxicity assay in Huh-7 cells; format: cell-based; conditions: human, read-out: Cytotoxicity (IC50, μM) Huh-7
QUANTITY MEASURED: IC50 (µM)
Answers are plain numbers, in µM.

Query: Answer with the recorded IC50 of `O=C1Nc2cc(C(=O)N3CCC(Cc4ccccc4)CC3)ccc2Nc2ccccc21` only.
Response: 10.4

----------
experiment: Cellular toxicity assay in CEM cells; format: cell-based; settings: human, CEM (human lymphoblastoid) cells, read-out: Cytotoxicity (IC50, μM) CEM
QUANTITY MEASURED: IC50 (µM)
Numbers only, in µM.

Query: Answer with the recorded IC50 of `O=C1Nc2cc(C(=O)N3CCC(Cc4ccccc4)CC3)ccc2Nc2ccccc21` only.
Response: 11
